# tested_on: DCN1 (DCUND1) protein PONY domain (Homo sapiens (Human), UniProt Q96GG9)
# Sequence (Q96GG9 60-248): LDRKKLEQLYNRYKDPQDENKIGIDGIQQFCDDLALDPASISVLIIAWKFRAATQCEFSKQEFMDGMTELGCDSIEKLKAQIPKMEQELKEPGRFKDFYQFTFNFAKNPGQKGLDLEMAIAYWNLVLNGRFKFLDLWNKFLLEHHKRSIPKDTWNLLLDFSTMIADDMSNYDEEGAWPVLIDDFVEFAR
# protocol: TR-FRET assay, DCN1 binding with FAM-labeled probe
# condition_notes: TR FRET IC50 1 hr (nM), 1 hr after treatment with compound
endpoint: IC50

These recorded examples may help you get a feel for the data.
>>> reported_measurement("CCN1C(=O)[C@@H](NC(=O)c2cccc(C(F)(F)F)c2)[C@@H](c2ccc(F)cc2)c2c(CNCC#N)nn(-c3ccccc3)c21 (racemic) [Compound I-96]")
"200 to 1000 nM"
>>> reported_measurement("CCN(CC#N)C(=O)c1nn(-c2ccccc2)c2c1[C@@H](c1ccc(F)cc1)[C@@H](NC(=O)c1cccc(C(F)(F)F)c1)C(=O)N2CC (stereo in doubt) [Compound I-531]")
"1000 to 3000 nM"
>>> reported_measurement("CCN1C(=O)[C@@H](NC(=O)c2cccc(C(F)(F)F)c2)[C@@H](c2ccc(F)cc2)c2c(C(C)(C)N(C)C#N)nn(-c3ccccc3)c21 (racemic) [Compound I-42]")
"1000 to 3000 nM"
>>> reported_measurement("CCCn1nc(C(=O)N(C)C(C)C#N)c2c1N(CC)C(=O)[C@@H](NC(=O)c1cccc(C(F)(F)F)c1)[C@H]2C1CC1 (some centres unmarked) [Compound I-569]")
"200 to 1000 nM"
>>> reported_measurement("CCN1C(=O)[C@@H](NC(=O)c2cccc(C(F)(F)F)c2)[C@@H](c2ccc(F)cc2)c2c(CN(C#N)CCF)nn(-c3ccccc3)c21 (racemic) [Compound I-61]")
"200 to 1000 nM"

Below are some compounds; for each one, tell me its IC50.
1. CCN1C(=O)[C@@H](NC(=O)CN2CC(c3ccccc3)CC2=O)[C@@H](C2CC2)c2c(C(=O)N3[C@H](C#N)C[C@H]4C[C@H]43)nn(C3CCOCC3)c21 (some centres unmarked) [Compound I-629]
2. CCN1C(=O)[C@H](NC(=O)c2cccc(C(F)(F)F)c2)[C@H](c2ccc(F)cc2)c2c(C(=O)N3CCOCC3C#N)nn(-c3ccccc3)c21 (single isomer, unassigned) [Compound I-296]
3. C=C(C(=O)O)c1nn(-c2ccccc2)c2c1[C@@H](c1ccc(F)cc1)[C@@H](NC(=O)c1cccc(C(F)(F)F)c1)C(=O)N2CC [Compound I-77]
4. CCN1C(=O)[C@@H](NC(=O)c2cccc(C(F)(F)F)c2)[C@@H](C2CC2)c2c(C(=O)N3[C@@H](C#N)C[C@@H]4C[C@@H]43)nn(C3CCOCC3)c21 [Compound I-703]

Outgoing:
1000 to 3000 nM
1000 to 3000 nM
1000 to 3000 nM
1000 to 3000 nM

Below are some compounds; for each one, tell me its IC50.
1. CCN1C(=O)[C@@H](NC(=O)c2cccc(C(F)(F)F)c2)[C@@H](c2ccc(F)cc2)c2c(NC(=O)C3=CCCN(C)C3)nn(-c3ccccc3)c21 (racemic) [Compound I-488]
2. C=C(Cc1nn(-c2ccccc2)c2c1[C@H](c1ccc(F)cc1)[C@H](NC(=O)c1cccc(C(F)(F)F)c1)C(=O)N2CC)C(N)=O (racemic) [Compound I-105]

Outgoing:
1. 200 to 1000 nM
2. 200 to 1000 nM

###

Assignment: determine reported pIC50 for the given compounds.
# Tested on: Cullin-3 (CUL3) neddylation
# protocol: AlphaLISA assay for Cullin-3 (CUL3) neddylation in TF 1 cells
# Assay type: cell-based
# condition_notes: Homo sapiens, TF-1, 3 h, 3 hours treatment
pIC50: −log10 of the molar value.

These recorded examples may help you get a feel for the data.
>>> reported_measurement("CCN1C(=O)[C@@H](NC(=O)c2cccc(C(F)(F)F)c2)[C@@H](C2CC2)c2c(C(=O)N3CC(=O)C[C@H]3C#N)nn(C3CCOCC3)c21 [Compound I-626]")
"≥ 7.00"
>>> reported_measurement("CCN1C(=O)[C@@H](NC(=O)c2cccc(C(F)(F)F)c2)[C@@H](c2ccccn2)c2c(C(=O)N3CCC[C@H]3C#N)nn(-c3ccccc3)c21 (mixture of isomers) [Compound I-413]")
"≥ 7.00"

Incoming: Return reported pIC50; argument: CCN1C(=O)[C@@H](NC(=O)c2cccc(C(F)(F)F)c2)[C@@H](C2CC2)c2c(C(=O)N3[C@H](C)CC[C@H]3C#N)nn(C3CCOCC3)c21 [Compound I-621]
Outgoing: < 6.00

###

# tested_on: DCN1 (DCUND1) protein PONY domain (Homo sapiens (Human))
# protocol: TR-FRET assay, DCN1 binding with FAM-labeled probe
# condition_notes: TR FRET IC50 1 hr (nM), 1 hr after treatment with compound
endpoint: IC50

>>> reported_measurement("CCN1C(=O)[C@@H](NC(=O)c2cccc(C(F)(F)F)c2)[C@@H](c2ccc(F)cc2)c2c(C/C=C/C(=O)NCCCN(C)C)nn(-c3ccccc3)c21 (racemic)")
"200 to 1000 nM"
>>> reported_measurement("CCN1C(=O)[C@@H](NC(=O)c2ccc(N3CCN(C)CC3)cn2)[C@@H](C2CC2)c2c(C(=O)N3[C@H](C#N)C[C@H]4C[C@H]43)nn(C3CCOCC3)c21")
"1000 to 3000 nM"

Here is another compound to look at.
Incoming: Return reported IC50; argument: `CCN1C(=O)[C@@H](NC(=O)c2cccc(C(F)(F)F)c2)[C@@H](c2ccc(F)cc2)c2c(CN3C(=O)CC[C@H]3C#N)nn(-c3ccccc3)c21`
Outgoing: 1000 to 3000 nM

###

# Tested on: Cullin-3 (CUL3) neddylation
# protocol: AlphaLISA assay for Cullin-3 (CUL3) neddylation in TF 1 cells
# Format: cell-based
# condition_notes: Homo sapiens, TF-1, 3 h, 3 hours treatment
endpoint: IC50

These recorded examples may help you get a feel for the data.
>>> reported_measurement("CCN1C(=O)[C@@H](NC(=O)c2cccc(C(F)(F)F)c2)[C@@H](c2ccc(F)cc2)c2c([C@@H](CN(C)C)NC(N)=O)nn(-c3ccccc3)c21 (mixture of isomers)")
"> 1000 nM"
>>> reported_measurement("CCc1cccc(C(=O)N[C@@H]2C(=O)N(CC)c3c(c(C(=O)N4[C@H](C#N)C[C@H]5C[C@H]54)nn3C3CCOCC3)[C@@H]2C2CC2)c1")
"≤ 100 nM"

Incoming: Return reported IC50; argument: C=C(C)C(=O)NCc1nn(-c2ccccc2)c2c1[C@H](c1ccc(F)cc1)[C@H](NC(=O)c1cccc(C(F)(F)F)c1)C(=O)N2CC (racemic)
Outgoing: 100 to 1000 nM

###

# tested_on: DCN2 (DCUND2) protein PONY domain (Homo sapiens (Human))
# Sequence (Q6PH85 60-248): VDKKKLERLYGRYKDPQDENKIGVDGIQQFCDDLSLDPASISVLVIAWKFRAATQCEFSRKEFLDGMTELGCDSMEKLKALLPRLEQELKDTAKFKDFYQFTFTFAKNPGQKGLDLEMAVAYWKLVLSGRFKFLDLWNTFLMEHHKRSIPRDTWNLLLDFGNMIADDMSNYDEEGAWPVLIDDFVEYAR
# protocol: Measurement of Kinact/KI in the DCN2 TR-FRET Assay
# Type: binding
# condition_notes: time-dependent IC50 over 24 hrs, read-out: Kinact (converted)
endpoint: log10 of kinact (log10 of the value in s⁻¹)
Note: values are log10 of kinact expressed in s⁻¹.

>>> reported_measurement("CCN1C(=O)[C@@H](NC(=O)c2cccc(C(F)(F)F)c2)[C@@H](c2ccc(F)cc2)c2c([C@@H](C)NC#N)nn(-c3ccccc3)c21 [Compound I-73]")
-2.42
>>> reported_measurement("CCN1C(=O)[C@@H](NC(=O)c2cccc(C(F)(F)F)c2)[C@@H](C)c2c(C(=O)N3[C@H](C#N)C[C@H]4C[C@H]43)nn(C3CCOCC3)c21 [Compound I-387]")
-2.14

Below are some molecules; for each one, tell me its log10 of kinact.
1. CCN1C(=O)[C@@H](NC(=O)c2cccc(C(F)(F)F)c2)[C@@H](c2ccc(F)cc2)c2c(C(=O)N3CCNC[C@H]3C#N)nn(C3CCOCC3)c21 [Compound I-363]
2. CCN1C(=O)[C@@H](NC(=O)c2cccc(C(F)(F)F)c2)[C@@H](c2ccc(F)cc2)c2c(C(=O)N3CCC[C@H]3C#N)nn(C3CCOCC3)c21 [Compound I-350]
3. CCN1C(=O)[C@@H](NC(=O)c2cccc(C(F)(F)F)c2)[C@@H](C2CC2)c2c(C(=O)N3C[C@H](NC)C[C@H]3C#N)nn(C3CCOCC3)c21 [Compound I-425]
4. CCN1C(=O)[C@@H](NC(=O)c2cccc(C(F)(F)F)c2)[C@@H](c2ccc(F)cc2)c2c(C(=O)N(C)[C@@H](C#N)CCN(C)C)nn(C3CCOCC3)c21 [Compound I-369]
5. CCN1C(=O)[C@@H](NC(=O)c2cccc(C(F)(F)F)c2)[C@@H](C2CC2)c2c(C(=O)N3C[C@H](F)C[C@H]3C#N)nn(C3CCOCC3)c21 [Compound I-372]

Outgoing:
[-2.34, -2.38, -3.94, -4.66, -2.50]

###

Assignment: determine reported IC50 for the given molecules.
# Test system: Cullin-3 (CUL3) neddylation
# protocol: AlphaLISA assay for Cullin-3 (CUL3) neddylation in TF 1 cells
# Assay type: cell-based
# condition_notes: Homo sapiens, TF-1, 3 h, 3 hours treatment

>>> reported_measurement("CCN1C(=O)[C@@H](NC(=O)c2cccc(C(F)(F)F)c2)[C@@H](c2ccc(F)cc2)c2c(CNC(=O)/C=C/CN3CCC3)nn(-c3ccccc3)c21 (racemic)")
"0.1 to 1 µM"
>>> reported_measurement("CCN1C(=O)[C@@H](NC(=O)c2nccc(C(F)(F)F)n2)[C@H](c2ccc(F)cc2)c2c(CN(C)C(=O)CC#N)nn(-c3ccccc3)c21")
"0.1 to 1 µM"
>>> reported_measurement("C=C(CN1CCOCC1)C(=O)NCc1nn(-c2ccccc2)c2c1[C@@H](c1ccc(F)cc1)[C@H](NC(=O)c1cccc(C(F)(F)F)c1)C(=O)N2CC (racemic)")
"≤ 0.1 µM"

Below are some molecules; for each one, tell me its IC50.
1. CCN1C(=O)[C@@H](NC(=O)c2cccc(C(F)(F)F)c2)[C@@H](C2CC2)c2c(C(=O)N3CCNC[C@H]3C#N)nn(C3CCOCC3)c21
2. CCN1C(=O)[C@@H](NC(=O)c2cccc(C(F)(F)F)c2)[C@@H](c2ccc(F)cc2)c2c(CN(C#N)CCCCN(C)C)nn(-c3ccccc3)c21 [Compound I-248]
3. CCN1C(=O)[C@@H](NC(=O)c2cccc(C(F)(F)F)c2)[C@@H](C2CC2)c2c(C(=O)N3CS(=O)(=O)C[C@H]3C#N)nn(-c3ccccc3)c21
4. CCN1C(=O)[C@@H](NC(=O)c2cccc(C(F)(F)F)c2)[C@@H](C2CC2)c2c(C(=O)N3[C@H](C#N)C[C@@H]4C[C@@H]43)nn(C3CCOCC3)c21
5. CCN1C(=O)[C@@H](NC(=O)c2cccc(C(F)(F)F)c2)[C@@H](c2ccc(F)cc2)c2c(C(=O)N3CCC[C@H]3C#N)nn(-c3cccc(OCCN(C)C4COC4)c3)c21
6. CCN1C(=O)[C@@H](NC(=O)c2nccc(C(F)(F)F)n2)[C@H](c2ccc(F)cc2)c2c(CC(=O)N[C@@H](C)C#N)nn(-c3ccccc3)c21 (single isomer, unassigned)
7. CCN1C(=O)[C@@H](NC(=O)c2cccc(C(F)(F)F)c2)[C@@H](C2CC2)c2c(C(=O)N3CCNC[C@@H]3C#N)nn(C3CCOCC3)c21 (single isomer, unassigned)

Outgoing:
["≤ 0.1 µM", "≤ 0.1 µM", "≤ 0.1 µM", "> 1 µM", "≤ 0.1 µM", "> 1 µM", "≤ 0.1 µM"]

Below are some molecules; for each one, tell me its IC50.
1. CCN1C(=O)[C@@H](NC(=O)c2cccc(C(F)(F)F)c2)[C@@H](c2ccc(F)cc2)c2c(C(=O)N(C)[C@@H](C#N)C3COC3)nn(-c3ccccc3)c21 (single isomer, unassigned)
2. CCN1C(=O)[C@@H](NC(=O)c2cccc(C(F)(F)F)c2)[C@@H](c2ccc(F)cc2)c2c([C@@H](C)NC#N)nn(-c3ccccc3)c21
3. CCN1C(=O)[C@@H](NC(=O)c2cccc(C(F)(F)F)c2)C(c2ccc(F)cc2)c2c(C(=O)N(CC#N)C3COC3)nn(-c3ccccc3)c21 (mixture of isomers)
4. CCN1C(=O)[C@H](NC(=O)c2cccc(C(F)(F)F)c2)[C@H](C2CC2)c2c(C(=O)N(C)C(C)C#N)nn(-c3ccccc3)c21 (some centres unmarked)

Outgoing:
1: ≤ 0.1 µM; 2: ≤ 0.1 µM; 3: ≤ 0.1 µM; 4: > 1 µM
